# System: wheat germ agglutinin (Triticum aestivum), Alexa647-labelled
# Method Notes: wheat germ agglutinin binders on compound microarrays, profiling panel, artefact control for SMM control-protein annotation, biochemical, small-molecule microarray, 635/667 nm fluorescence (AID 1140);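 note: score merges 667 nm feature emission with signal to noise over triplicate slides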
# Protocol Conditions: WGA-A647 binding, 635 nm fluorescence, higher = more signal
For each of the compounds below, state its composite z-score.

## Input Supply composite z-score value. Item: "CCc1cc2c(nc1CC)CCN(CCC(C)=NOC[C@@H](O)[C@H]1O[C@@H]3OC(C)(C)O[C@@H]3[C@H]1O)C2"
## Output 0.878

## Input Supply composite z-score value. Item: "C=CC[C@@H]1C=C[C@H](ON=Cc2ccc(C(=O)N3[C@H](c4ccc(C)cc4)[C@@H](C)CC[C@H]3C(=O)OC)cc2)[C@@H](CO)O1"
## Output 0.0608

## Input Supply composite z-score value. Item: "CCOC(=O)CCN1C(=O)[C@H]2[C@H]3[C@H](O)C=CC(=O)[C@@H]3CC[C@H]2C1=O"
## Output 0.307

## Input Supply composite z-score value. Item: CN1C(=O)C2C=CC(C(O)c3ccc(I)cc3)N(NC(=O)OC(C)(C)C)C2C1=O (configuration not stated)
## Output 0.743

## Input Supply composite z-score value. Item: "CCc1cc2c(nc1CC)CCN(CCC(C)=NO[C@@H](C)c1cc(-c3c(C)cc(C)cc3C)no1)C2"
## Output 0.0999

## Input Supply composite z-score value. Item: COc1cccc([C@H]2Oc3ccc(OC)cc3C(=NOC(C)CN3CCCc4nc(C)c(C)cc43)[C@@H]2O)c1 (some centres not stated)
## Output -0.299

## Input Supply composite z-score value. Item: "COC(=O)[C@]1(CO)N=C(c2ccc(OCCCO)cc2)O[C@@H]1c1ccccc1N=[N+]=[N-]"
## Output -0.119

## Input Supply composite z-score value. Item: Cn1cccc1C(O)C1C=CC2C(=O)NC(=O)C2N1Nc1ccccn1 (configuration not stated)
## Output 1.03

## Input Supply composite z-score value. Item: "COc1ccc(OC[C@H]2Cc3c(-c4ccccc4)nc4c(c3CO2)CN(CCOc2ccccc2)CC4)cc1"
## Output 0.387

## Input Supply composite z-score value. Item: "O=C1C[C@@H](O)[C@@H](O)[C@@H]2[C@@H]3C(=O)N(Cc4ccc5c(c4)OCO5)C(=O)[C@@H]3CC[C@@H]12"
## Output -0.107

## Input Supply composite z-score value. Item: "C=C(/C(=C/C[C@H](OC(=O)c1ccncc1)c1ccc(OCCO)cc1)c1cnc2ccccc2c1)C(C)C"
## Output 0.843

## Input Supply composite z-score value. Item: CCOC(=O)[C@H](Cc1ccccc1)NC(=O)CCC1CC(OC(=O)NCc2ccc3c(c2)OCO3)CC2(CCCC(COC(=O)NCC3CCCCC3)O2)O1 (some centres not stated)
## Output 0.206

## Input Supply composite z-score value. Item: O=C1NC(=O)C2C1C=CC(C(O)Cc1ccccc1)N2Nc1ccccn1 (configuration not stated)
## Output 0.639

## Input Supply composite z-score value. Item: "COC(=O)CC=C[C@@H](C)[C@H](OC)c1ccccc1Br"
## Output -0.602

## Input Supply composite z-score value. Item: CN(C)c1ccc(C(O)C2C=CC3C(=O)N(c4ccccc4)C(=O)C3N2Nc2ccccc2F)cc1 (configuration not stated)
## Output 0.792

## Input Supply composite z-score value. Item: CCCCCN1CC=CC23O[C@@H]4C=CCOC(=O)[C@@H]4[C@H]2C(=O)N(C(CO)C(C)C)[C@@H]3C1=O (some centres not stated)
## Output -0.521

## Input Supply composite z-score value. Item: "CC(C)OC(=O)C=C1C[C@@H](c2ccc(C#N)cc2)O[C@@H](c2ccc(C#N)cc2)O1"
## Output 0.972
